# SYSTEM_TESTED: T1, purified human glycophorin A protein (Sigma, cat # G5017) (human, UniProt P02724 20-150)
# T1 construct: mature; also called Sigma hGPA; Sigma GPA
# T1 sequence (looked up): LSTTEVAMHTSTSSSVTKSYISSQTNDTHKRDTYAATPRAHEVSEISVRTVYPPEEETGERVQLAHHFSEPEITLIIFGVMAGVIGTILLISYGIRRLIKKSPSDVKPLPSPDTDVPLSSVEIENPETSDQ
# ASSAY_COMMENT: ELISA, hGPA

| BINDER | EC50 / nM |
| --- | --- |
| 6C12B8/H8 (antibody, V domains shown, mouse IgG1/k from hybridoma; also called 6C12 parental; TPP-3422) VH: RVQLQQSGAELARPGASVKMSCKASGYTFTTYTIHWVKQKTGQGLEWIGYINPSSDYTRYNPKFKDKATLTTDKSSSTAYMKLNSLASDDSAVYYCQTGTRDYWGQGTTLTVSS VL: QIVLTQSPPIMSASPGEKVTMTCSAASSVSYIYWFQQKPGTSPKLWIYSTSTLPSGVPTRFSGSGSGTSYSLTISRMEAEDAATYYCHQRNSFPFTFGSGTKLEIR | 0.791 |
